# measurement notes: Ratio of hemicholinium-3 LD50 to compound LD50 for toxicity in ip dosed Charles River CD-1 albino mouse measured within 5 mins
# Assay type: organism-based
# details: CD-1, mouse, in vivo
property name: selectivity ratio at 5 min
// print number alone

[ask] Recorded selectivity ratio at 5 min for CC(=O)OCC[N+](C)(C)CC(=O)c1ccc(-c2ccc(C(=O)C[N+](C)(C)CCOC(C)=O)cc2)cc1.[Br-].[Br-] , please?
[reply] 1

[ask] Would you mind telling me what selectivity ratio at 5 min value was observed for CC(=O)CCC[N+](C)(C)CC(=O)c1ccc(-c2ccc(C(=O)C[N+](C)(C)CCCC(C)=O)cc2)cc1.[Br-].[Br-] ?
[reply] 23.8

[ask] Report selectivity ratio at 5 min for CCCCC[N+](C)(C)CC(=O)c1ccc(-c2ccc(C(=O)C[N+](C)(C)CCCCC)cc2)cc1.[Br-].[Br-] please.
[reply] 43.1

[ask] Need selectivity ratio at 5 min, item CCOCC[N+](C)(C)CC(=O)c1ccc(-c2ccc(C(=O)C[N+](C)(C)CCOCC)cc2)cc1.[Br-].[Br-]
[reply] 14.2
